Attribution: ChEMBL document CHEMBL1201862

Tested on: KM-20L2
Assay: NCI tumour cell line growth inhibition, 48 h
Calls of active or inactive are those of the source. Cut-off read from the data, not from the text of the source: active = GI50 up to about 1.1 µM and inactive = higher.
Possible outcomes: y for active, n for inactive

molecule | qualitative-label
C=C1CCC23CC(CC[C@@H]2[C@@]12C[C@@H](c1ccoc1)OC2=O)OC3=O (stereo partly specified) | n
Cc1cc2nc3ccc(N(C)C)cc3[s+]c2cc1N [TOLONIUM CHLORIDE] | n
COc1ccc2nc(C)cc(NCCCCCCCCCNc3cc(C)nc4ccc(OC)cc34)c2c1 | y
CCc1ccccc1NC(=O)CCc1n[nH]c(=S)o1 | n
CC(=O)O[C@H]1CC[C@@]2(C)C(=CC[C@@H]3C2CC[C@]2(C)Nc4c(cnn4-c4ccccc4)CC32)C1 (stereo partly specified) | n
CCCCCCc1cn([C@H]2C[C@H](O)[C@@H](CO)O2)c(=O)[nH]c1=O | n
O=C(O)CCSCCCN1C(=O)c2ccccc2C1=O | n
CC1(c2cc3c(cc2Br)OCO3)SCCCS1 | n
COc1ccc2nc3cc(Cl)ccc3c(NCCC(=O)OCC(O)C(O)C(O[C@H](C)C(=O)NC(C)C(=O)NC(CCC(N)=O)C(=O)OCc3ccccc3)C(C=O)NC(C)=O)c2c1 (stereo partly specified) | n
N#CC(C#N)=Cc1ccc(C(O)P(=O)(O)O)cc1 (stereo unspecified) | n
CC1OC=CC(=O)C1O (stereo unspecified) | n
N#C/C(=N\c1ccccc1N(C(=O)c1ccccc1)C(=O)c1ccccc1)c1ccccc1 | n
N#C/N=C(/N)NCO | n
COc1ccc(C(=O)C(c2ccc(OC)cc2)C2C(=O)Oc3ccccc32)cc1 (stereo unspecified) | n
O=C(O)c1c2c(cc3c(=O)cc(-c4ccccc4)oc13)CCCC2 | n
N=C(N)NS(=O)(=O)c1ccc(Nc2c3ccccc3nc3c(C(=O)N4CCN(CCO)CC4)cccc23)cc1 | n
